As shown below, each of these compounds has a reported Reduction value.
assay: Tested in vivo for sterilization of female worms; format: functional, Acanthocheilonema viteae; set-up: concentration or dose not given beside the values
Express it in %; write the number only.

>>> print(df.to_string())
                                   compound  experimental_result
0         CCCCCCCCNC(=O)c1cnc2ccc(Cl)cc2c1O                    0
1  O=C(NC1CCCCC1)c1cnc2cc([N+](=O)[O-])ccc2c1O                    0
2          CCCCCCCCNC(=O)c1cnc2c(C)cccc2c1O                    0
3             CCCCCCCCNC(=O)c1cnc2ccccc2c1O                    0
4  O=C(NC1CCCCC1)c1cnc2ccc([N+](=O)[O-])cc2c1O                    0
5          O=C(NC1CCCCC1)c1cnc2ccc(F)cc2c1O                   36

input: Tell me Reduction reported for CCN(CC)CCCC(C)NC(=O)c1cnc2ccc([N+](=O)[O-])cc2c1O (stereo not drawn)
output: 0

input: Please report the measured Reduction for `Cc1cccc2c(O)c(C(=O)NC3CCCCC3)cnc12`
output: 0

input: Give Reduction for `CCCCCCCCNC(=O)c1cnc2c(F)cccc2c1O`
output: 25

input: Identify measured Reduction associated with `CCCCCCCCNC(=O)c1cnc2ccc([N+](=O)[O-])cc2c1O`
output: 100

input: Please report Reduction for the following compound: CCN(CC)CCCC(C)NC(=O)c1cnc2cc(Cl)c(F)cc2c1O (stereo not drawn)
output: 0

input: Quickly give me recorded Reduction for `CCCCCCCCNC(=O)c1cnc2ccc(F)cc2c1O`
output: 0

input: Report measured Reduction; entry is CCN(CC)C(=O)N1CCN(C)CC1.O=C(O)CC(O)(CC(=O)O)C(=O)O [DIETHYLCARBAMAZINE CITRATE]
output: 0

The reported numbers originate from ChEMBL document CHEMBL1132942.
